Kindly state solubility kinetic for each of the entries shown.
studyConditions: buffer; pH 7.4; 200.0 µM

                                   molecule             readout      obsvalue
0               CCOc1cccc(C(=O)Nc2ccncc2)c1  solubility kinetic  > 36.3 µg/mL
1       CN(C)CCCN1C(=O)c2cccc3cccc(c23)C1=O  solubility kinetic  > 42.4 µg/mL
2  Cc1cc(NC(=O)C2CC(=O)N(c3ccccc3Cl)C2)no1 (stereo unspecified)  solubility kinetic    > 48 µg/mL
3                 C/C(=N\O)c1ccc2c(c1)OCCO2  solubility kinetic    > 29 µg/mL
4  NC(=O)c1oc2ccccc2c1NC(=O)C1COc2ccccc2O1 (stereo unspecified)  solubility kinetic   < 0.4 µg/mL
5                O=C(NCc1ccc(F)cc1)c1cnccn1  solubility kinetic  > 34.7 µg/mL

Please supply solubility kinetic for each of the following items, keeping them in order.
1. CC(=O)Nc1cc(NC(C)=O)cc(-c2nc3ccccc3[nH]2)c1
2. Cn1cccc1C(=O)OCC(=O)NCCc1ccc(S(N)(=O)=O)cc1

1: > 46.3 µg/mL; 2: > 54.8 µg/mL

Please supply solubility kinetic for each of the following items, keeping them in order.
1. O=[N+]([O-])c1ccccc1NCc1ccccc1Cl
2. Cc1cc2nc(C)c3c(n2n1)CCC3
3. O=C(c1cccc(C(F)(F)F)c1)N1CCc2c([nH]c3ccccc23)C1C(F)(F)F (stereo unspecified)
4. Cn1c(O)c(C=NC2CCN(Cc3ccccc3)CC2)c(=O)[nH]c1=O
5. NS(=O)(=O)c1ccc(NC(=O)c2ccc3c(c2)CCCC3)cc1
6. COC(=O)c1cccc(NC(=O)Cc2ccsc2)c1
7. C=CCNC(=O)C1CCC(C(=O)NCC=C)CC1 (stereo unspecified)
8. COCC(C)n1c(SCC(=O)N2CCOCC2)nc2ccccc2c1=O (stereo unspecified)

1: < 0.3 µg/mL; 2: > 28.1 µg/mL; 3: < 0.4 µg/mL; 4: > 51.4 µg/mL; 5: < 0.4 µg/mL; 6: > 41.3 µg/mL; 7: > 37.6 µg/mL; 8: > 56.6 µg/mL

Please supply solubility kinetic for each of the following items, keeping them in order.
1. CC1CN(Cc2cc(=O)oc3cc(O)c(Cl)cc23)CC(C)O1 (stereo unspecified)
2. O=C(NCc1ccc2c(c1)OCO2)c1c(Cl)cccc1Cl

1: 41 µg/mL; 2: 15 µg/mL

Please supply solubility kinetic for each of the following items, keeping them in order.
1. O=S(=O)(c1ccc2c(c1)CCCC2)N1CCNCC1
2. Cc1ccccc1-c1nnc(SCC(=O)N2CCCC2)o1

> 42.1 µg/mL
> 45.5 µg/mL

###

Kindly state solubility kinetic for each of the entries shown.
studyConditions: buffer; pH 7.4; 200.0 µM
Answers are plain numbers, in µg/mL.

Solved cases (3 shown):
In [3]: df
Out[3]:
                                   compound  valueunits  obsvalue
0  NC(=O)c1oc2ccccc2c1NC(=O)c1ccc([N+](=O)[O-])o1       µg/mL       1.8
1  CC1(c2ccc([N+](=O)[O-])cc2)Nc2ccccc2S1 (centres undefined)       µg/mL      12.1
2  Cn1cccc1/C=C1/SC(=O)N(CC(=O)N2CCCC2)C1=O       µg/mL      15.2

Please supply solubility kinetic for each of the following items, keeping them in order.
1. Cc1ccc(NC(=O)C2CCN(S(C)(=O)=O)CC2)cc1Cl
2. CCOc1ccc(NC(=O)COC(=O)c2cc(C)oc2C)cc1
3. COc1ccc(S(=O)(=O)N2CCOCC2)cc1NC(=O)COC(=O)Cc1ccccc1
4. N#Cc1ccccc1COC(=O)c1cccc(S(=O)(=O)N2CCCC2)c1
5. COc1cc(CNC(=O)C2CC2)ccc1OCc1ccccc1
6. Cc1cc(NC(=O)CN(C)C)c([N+](=O)[O-])cc1C

[16.4, 4.2, 51.7, 12, 8.4, 4.1]

###

studyConditions: buffer; pH 7.4; 200.0 µM
readout: solubility kinetic

Solved cases (4 shown):
>>> print(df.to_string())
                                   molecule             readout      obsvalue
0    Cc1ccc(S(=O)(=O)CCc2nc3ccccc3[nH]2)cc1  solubility kinetic  > 45.1 µg/mL
1  O=C(COC(=O)[C@@H]1CC(O)CN1S(=O)(=O)c1ccc2c(c1)OCCO2)Nc1cc(F)ccc1F (some centres not stated)  solubility kinetic  > 74.8 µg/mL
2                O=C(NCCc1ccccc1)c1ccccc1Cl  solubility kinetic    > 39 µg/mL
3  CCC(=O)NC(c1ccccc1)c1c(OC(C)=O)ccc2ccccc12 (configuration not stated)  solubility kinetic  > 52.1 µg/mL

Please supply solubility kinetic for each of the following items, keeping them in order.
1. CC(C)(C)n1cnnc1Sc1ccc([N+](=O)[O-])cn1
2. Nc1cc(N)nc(SCCc2ccccc2)n1
3. CSc1ncc(Cl)c(C(=O)Nc2ccccc2[N+](=O)[O-])n1
4. COCCCn1c(=O)c2sccc2n(Cc2ccccc2C)c1=O
5. O=C(COC(=O)c1cccc(S(=O)(=O)N2CCOCC2)c1)NCc1ccccc1

1: > 41.9 µg/mL; 2: > 36.9 µg/mL; 3: < 0.2 µg/mL; 4: > 51.7 µg/mL; 5: > 62.8 µg/mL

Please supply solubility kinetic for each of the following items, keeping them in order.
1. Cc1cccc(-c2noc(CN(C)C(=O)c3ccco3)n2)c1
2. C/[N+]([O-])=C/c1c(OCc2ccccc2)ccc2ccccc12

1. > 44.6 µg/mL
2. > 43.7 µg/mL

Please supply solubility kinetic for each of the following items, keeping them in order.
1. COc1cc(NC(=O)CN2CCCCCC2)cc(OC)c1
2. CC(=O)Nc1ccccc1NC(=O)c1ccc(C)c(C)c1
3. Cc1cccc(Nc2ccc(C(=O)O)cc2[N+](=O)[O-])c1C
4. O=C(Nc1nncs1)c1cc(-c2ccco2)nc2ccccc12
5. COC(=O)c1c(C)[nH]c(C(=O)OCC(=O)NC(C)(C)C)c1C

1: > 43.9 µg/mL; 2: > 42.4 µg/mL; 3: > 42.9 µg/mL; 4: > 48.4 µg/mL; 5: > 46.6 µg/mL

Please supply solubility kinetic for each of the following items, keeping them in order.
1. CC(=O)Nc1ccc(NC(=O)C(C)OC(=O)C2CCC2)cc1 (configuration not stated)
2. COc1ccc(NC(C)C(=O)Nc2cccc(S(=O)(=O)N3CCOCC3)c2)cc1OC (configuration not stated)
3. COc1cc(OC)c(C=O)c(OC(=O)N2CCOCC2)c1
4. O=C(NCCc1ccc(Cl)cc1)Nc1ccc(Cl)cc1
5. CCOc1nc(NCCO)nc(Nc2ccccc2F)n1

["> 45.7 µg/mL", "> 67.4 µg/mL", "> 44.3 µg/mL", "< 0.3 µg/mL", "> 44 µg/mL"]

For reference, reported solubility kinetic for `Cc1ccc(OCCOC(=O)c2c(-c3ccccc3)noc2C)cc1` stands at < 0.7 µg/mL

###

studyConditions: buffer; pH 7.4; 200.0 µM
readout: solubility kinetic

Solved cases (2 shown):
                               compound      obsvalue
0              OCCNC(=S)Nc1cccc(Cl)c1Cl  > 39.8 µg/mL
1  CS(=O)(=O)Nc1cccc(-c2cnc3ccccc3n2)c1  > 44.9 µg/mL

Next, consider the following compound.
For reference, reported solubility kinetic for CC1(C)C2CCC1(CS(=O)(=O)N1CCCC1C(=O)O)C(=O)C2 (stereo not drawn) stands at > 49.4 µg/mL

###

studyConditions: buffer; pH 7.4; 200.0 µM
Kindly state solubility kinetic for each of the entries shown.

>>> df
                                   compound      obsvalue
0  CC1(N(O)C=C2C=CC(=O)C=C2)CCCCC1=O (stereo not drawn)  > 37.1 µg/mL
1  O=C(COc1ccccc1)Nc1cc2c3c(c1)CC(=O)N3CCC2  > 48.4 µg/mL
2          O=C(Nc1ccc(-c2cnco2)cc1)c1ccccc1   < 0.3 µg/mL
3  COc1ccc(NC(=O)CSc2nnc(N)s2)cc1S(=O)(=O)N1CCCCC1  > 66.5 µg/mL
4  CCOc1ccc(N2CC(C(=O)NCc3ccco3)CC2=O)cc1 (stereo not drawn)  > 49.3 µg/mL

Please supply solubility kinetic for each of the following items, keeping them in order.
1. COc1ccc(NS(=O)(=O)c2cccs2)cn1
2. Cc1cnc(C(=O)OCC(=O)NC(=O)c2ccccc2)cn1
3. CCOc1cc(Cl)c(CNCCCN2CCOCC2)cc1OC
4. CCOCC(=O)Nc1ccc(S(=O)(=O)NCC2CCCO2)cc1 (stereo not drawn)
5. COC(=O)c1c(C(=O)OC)c(-c2ccc(F)cc2)n2c1CS(=O)C2 (stereo not drawn)

1. > 40.5 µg/mL
2. > 44.9 µg/mL
3. > 51.4 µg/mL
4. > 51.4 µg/mL
5. > 52.7 µg/mL

Please supply solubility kinetic for each of the following items, keeping them in order.
1. COC(=O)C1=C(C)N(C)C(=O)NC1c1c(O)ccc2ccccc12 (stereo not drawn)
2. O=C(NC1C2CC3CC(C2)CC1C3)c1ccc2c(c1)OCO2 (stereo not drawn)
3. COc1ccc(N2C(=O)[C@@H]3C(c4cccnc4)=NO[C@@H]3C2=O)cc1
4. CCOc1cc(C=O)ccc1OCc1cc(=O)n2cc(C)ccc2n1

1. > 49 µg/mL
2. 7.9 µg/mL
3. 45 µg/mL
4. 4.4 µg/mL

Please supply solubility kinetic for each of the following items, keeping them in order.
1. Cc1cccc(NC(=O)c2ccc(S(=O)(=O)N(C)c3ccccc3)cc2)n1
2. NC(=NC(=O)c1ccc(OCC(F)(F)F)nc1)c1ccccc1
3. N#CC1=C(N)Oc2cc(N)ccc2C1c1ccc(F)cc1F (stereo not drawn)
4. Cc1ccc(NC(=O)c2cc3c(s2)CCCC3)cc1

1. 11.6 µg/mL
2. 6.6 µg/mL
3. > 44.9 µg/mL
4. 4 µg/mL
